experiment: in vitro; type: cell-based; conditions: human
READOUT_NAME: viability at 24 h, 1 nM (%)

> print(dat)
                                smiles.code  number
1  C[C@]12C=CC(=O)C=C1CC[C@H]1[C@@H]3C[C@@H](O)[C@](O)(C(=O)CO)[C@@]3(C)C[C@H](O)[C@@]12F     101
2  C#C[C@]1(O)CC[C@H]2[C@@H]3CCC4=Cc5oncc5C[C@]4(C)[C@H]3CC[C@@]21C     106
3  CC(=O)[C@H]1CC[C@H]2[C@@H]3CCC4=CC(=O)CC[C@]4(C)[C@H]3CC[C@]12C    98.7

----------
assay: in vitro; assay type: cell-based; conditions: human; log c -5; 24 h; MTT; read-out: % of viability
// reported viability at 24 h, 10 μM for each item listed
READOUT_NAME: viability at 24 h, 10 μM (%)

> print(dat)
                                   molecule  scale.unit  number
1  C[C@]12CCC(=O)C=C1CC[C@@H]1[C@@H]2[C@@H](O)C[C@@]2(C)[C@H]1CC[C@]2(O)C(=O)CO           %     105
2  C[C@]12CCC(=O)C[C@@H]1CC[C@@H]1[C@@H]2CC[C@]2(C)[C@@H](O)CC[C@@H]12 [5α-dihydrotestosterone]           %     104
3  C[C@]12CCC(=O)C=C1CC[C@@H]1[C@@H]2[C@@H](O)C[C@]2(C=O)[C@@H](C(=O)CO)CC[C@@H]12           %      97
4  C[C@]12CC[C@H]3[C@@H](CCC4=CC(=O)CC[C@@]43C)[C@@H]1CC[C@@H]2O           %     105

----------
experiment: in vitro; format: cell-based; settings: human
// reported viability at 24 h, 10 nM for each item listed
READOUT_NAME: viability at 24 h, 10 nM

COMPOUND	READOUT_NAME	RESULT
CC/C(=C(\c1ccc(O)cc1)c1ccc(OCCN(C)C)cc1)c1ccccc1 [4-hydroxytamoxifen]	viability at 24 h, 10 nM	100%
C[C@]12C=CC(=O)C=C1CC[C@@H]1[C@@H]2[C@@H](O)C[C@@]2(C)[C@H]1CC[C@]2(O)C(=O)CO [Prednisolone, prednisolone]	viability at 24 h, 10 nM	104%
CC(=O)O[C@]1(C(C)=O)CC[C@H]2[C@@H]3C=C(Cl)C4=CC(=O)[C@@H]5C[C@@H]5[C@]4(C)[C@H]3CC[C@@]21C [Cyproterone acetate, cyproterone acetate]	viability at 24 h, 10 nM	105%
C[C@]12CC[C@@H]3c4ccc(O)cc4CC[C@H]3[C@@H]1CC[C@@H]2O [17β-estradiole, estradiol]	viability at 24 h, 10 nM	110%
